# TGT: feline FcRn (FCN-F82W3, Acrobiosystems) (feline)
# MEASUREMENT_DESCRIPTION: SPR Carterra, IgG coupled, pH 6.0
MEASURED_ATTRIBUTE: Kd (µM)
Return type: number; implicit unit µM.

BINDER | VALUE
anti-NGF feline IgG1a, Fc variant S426L, T289H (antibody, part only; not given: Anti-NGF variable domains, not shown: another chain or arm of the molecule; small tags and cut ends) Fc: PPEMLGGPSIFIFPPKPKDTLSISRTPEVTCLVVDLGPDDSDVQITWFVDNTQVYTAKHSPREEQFNSTYRVVSVLPILHQDWLKGKEFKCKVNSKSLPSPIERTISKAKGQPHEPQVYVLPPAQEELSRNKVSVTCLIKSFHPPDIAVEWEITGQPEPENNYRTTPPQLDSDGTYFVYSKLSVDRSHWQRGNTYTCLVSHEALHSHHTQKSLTQSPGK | 0.115
anti-NGF feline IgG1a, Fc variant R334D, S428R (antibody, part only; not given: anti-NGF variable domains, light chain, not shown: another chain or arm of the molecule; small tags and cut ends) Fc: PPEMLGGPSIFIFPPKPKDTLSISRTPEVTCLVVDLGPDDSDVQITWFVDNTQVYTAKTSPREEQFNSTYRVVSVLPILHQDWLKGKEFKCKVNSKSLPSPIEDTISKAKGQPHEPQVYVLPPAQEELSRNKVSVTCLIKSFHPPDIAVEWEITGQPEPENNYRTTPPQLDSDGTYFVYSKLSVDRSHWQRGNTYTCSVRHEALHSHHTQKSLTQSPGK | 0.0817

Field: next binder
Req: Annotate the binder anti-NGF feline IgG1a, Fc variant S428L, D312T (antibody, part only; not given: anti-NGF variable domains, not shown: another chain or arm of the molecule; small tags and cut ends) Fc: PPEMLGGPSIFIFPPKPKDTLSISRTPEVTCLVVDLGPDDSDVQITWFVDNTQVYTAKTSPREEQFNSTYRVVSVLPILHQTWLKGKEFKCKVNSKSLPSPIERTISKAKGQPHEPQVYVLPPAQEELSRNKVSVTCLIKSFHPPDIAVEWEITGQPEPENNYRTTPPQLDSDGTYFVYSKLSVDRSHWQRGNTYTCSVLHEALHSHHTQKSLTQSPGK with its measured Kd.
Resp: 0.0112
